IC50 listing for selected compounds.
# tested_system: HDAC1 enzyme (recombinant GST-HDAC1) (Homo sapiens (Human), UniProt Q13547)
# Sequence (Q13547 whole entry): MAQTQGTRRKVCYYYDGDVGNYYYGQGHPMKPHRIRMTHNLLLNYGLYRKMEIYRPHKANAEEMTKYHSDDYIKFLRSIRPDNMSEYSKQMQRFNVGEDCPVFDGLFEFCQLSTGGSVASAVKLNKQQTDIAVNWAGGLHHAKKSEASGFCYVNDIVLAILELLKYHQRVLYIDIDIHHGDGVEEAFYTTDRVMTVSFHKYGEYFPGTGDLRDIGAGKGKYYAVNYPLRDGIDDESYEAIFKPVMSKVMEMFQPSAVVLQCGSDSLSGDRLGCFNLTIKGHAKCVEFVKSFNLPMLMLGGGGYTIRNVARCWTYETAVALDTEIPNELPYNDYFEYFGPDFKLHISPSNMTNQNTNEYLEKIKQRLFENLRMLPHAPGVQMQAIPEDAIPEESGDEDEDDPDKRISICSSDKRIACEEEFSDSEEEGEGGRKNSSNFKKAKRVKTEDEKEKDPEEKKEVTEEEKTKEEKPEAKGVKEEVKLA
# experimental_details: In vitro HDAC assay for determination of IC50 values (BIOMOL fluorescent-based HDAC activity assay)
# reported_conditions: Flur de lys substrate, 2 h room temperature, read-out: IC50 (HDAC 1)
Just the number please, in nM, no unit attached.

smiles_code: CCCc1nc2cc(/C=C/C(=O)NO)ccn2c1CNC(C)(C)C
value_type: IC50
test_result: 40

Per the record, CC(C)(C)NCc1c(-c2ccc(F)cc2)nc2cc(/C=C/C(=O)NO)ccn12 has IC50 of 51

====

# tested_system: HDAC1 enzyme (recombinant GST-HDAC1) (Homo sapiens (Human))
# experimental_details: In vitro HDAC assay for determination of IC50 values (BIOMOL fluorescent-based HDAC activity assay)
# reported_conditions: Flur de lys substrate, 2 h room temperature, read-out: IC50 (HDAC 1)
value_type: IC50 (nM)
Just the number please, in nM, no unit attached.

Illustrative cases are given below, each with its answer.
molecule: CC(C)CCN(C)Cc1c(C(C)(C)C)nc2cc(/C=C/C(=O)NO)ccn12
tested_system: HDAC1 enzyme (recombinant GST-HDAC1) (Homo sapiens (Human))
IC50 (nM): 350
--
molecule: COCCNc1c(CC(C)(C)C)nc2ccc(/C=C/C(=O)NO)cn12
tested_system: HDAC1 enzyme (recombinant GST-HDAC1) (Homo sapiens (Human))
IC50 (nM): 1000
--
molecule: CC1CN(Cc2c(-c3ccccc3)nc3cc(/C=C/C(=O)NO)ccn23)CC(C)O1 (stereo not shown)
tested_system: HDAC1 enzyme (recombinant GST-HDAC1) (Homo sapiens (Human))
IC50 (nM): 2400

Consider now this further molecule.
Per the reported HDAC1 enzyme (recombinant GST-HDAC1) (Homo sapiens (Human)) data, CCN(CCC(C)C)Cc1c(-c2ccccc2)nc2cc(/C=C/C(=O)NO)ccn12 has IC50 of 30

====

# tested_system: HDAC1 enzyme (recombinant GST-HDAC1) (Homo sapiens (Human), UniProt Q13547)
# experimental_details: In vitro HDAC assay for determination of IC50 values (BIOMOL fluorescent-based HDAC activity assay)
# Format: biochemical
# reported_conditions: Flur de lys substrate, 2 h room temperature, read-out: IC50 (HDAC 1)
# Method: Biological Testing and Enzyme Assays Recombinant GST-HDAC1 Protein Expression and Purification Human cDNA library was prepared using cultured SW620 cells. […] The assay has been carried out in 96 well format and the BIOMOL fluorescent-based HDAC activity assay has been applied. […] The fluorophore is excited with 360 nm light and the emitted light (460 nm) is detected on a fluorometric plate reader (Tecan Ultra Microplate detection system, Tecan Group Ltd.). […]
pIC50: −log10 of the molar value.
Record t whenever pIC50 is at 7 or higher; record f when lower.

// below: answered compounds
compound: CCCCCc1nc2cc(/C=C/C(=O)NO)ccn2c1CN(CC)CCCC [Compound 129]
assigned_category: t

compound: CCN(CCC(C)(C)C)Cc1c(CCC(C)C)nc2cc(/C=C/C(=O)NO)ccn12 [Compound 143]
assigned_category: t

compound: CCCC(C)CN(CC)Cc1c(C(C)(C)C)nc2cc(/C=C/C(=O)NO)ccn12 (centres unmarked) [Compound 91]
assigned_category: f

compound: CCCCN(CC)Cc1c(-c2ccccc2)nc2cc(/C=C/C(=O)NO)ccn12 [Compound 120]
assigned_category: t

compound: O=C(/C=C/c1ccn2c(CNC3CC3)c(-c3ccccc3)nc2c1)NO [Compound 62]
assigned_category: f

Continue with the next compound.
Lookup: Does the compound CCCCNc1c(CCCC)nc2ccc(/C=C/C(=O)NO)cn12 [Compound 13] have recorded pIC50 that is 7 or more?
Found: f

====

pIC50 listing for selected molecules.
# tested_system: HDAC1 enzyme (recombinant GST-HDAC1) (Homo sapiens (Human), UniProt Q13547)
# experimental_details: In vitro HDAC assay for determination of IC50 values (BIOMOL fluorescent-based HDAC activity assay)
# reported_conditions: Flur de lys substrate, 2 h room temperature, read-out: IC50 (HDAC 1)
The meaning of pIC50 here: minus log10 of the concentration in molar units.

Illustrative cases are given below, each with its answer.
molecule: CCCCCCc1nc2cc(/C=C/C(=O)NO)ccn2c1NCCC(=O)NCC(F)(F)F [Compound 23]
tested_system: HDAC1 enzyme (recombinant GST-HDAC1) (Homo sapiens (Human), UniProt Q13547)
value_type: pIC50
test_result: 6.80
--
molecule: CCCCCc1nc2cc(/C=C/C(=O)NO)ccn2c1NCCOC [Compound 17]
tested_system: HDAC1 enzyme (recombinant GST-HDAC1) (Homo sapiens (Human), UniProt Q13547)
value_type: pIC50
test_result: 6.52
--
molecule: CC(C)CCc1nc2cc(/C=C/C(=O)NO)ccn2c1CNC(C)(C)C [Compound 140]
tested_system: HDAC1 enzyme (recombinant GST-HDAC1) (Homo sapiens (Human), UniProt Q13547)
value_type: pIC50
test_result: 7.70
--
molecule: CCCCCCc1nc2cc(/C=C/C(=O)NO)ccn2c1NCCC(=O)NCCOC [Compound 24]
tested_system: HDAC1 enzyme (recombinant GST-HDAC1) (Homo sapiens (Human), UniProt Q13547)
value_type: pIC50
test_result: 6.89

Consider now this further molecule.
Per the record, CCCCc1nc2cc(/C=C/C(=O)NO)ccn2c1CN(CC)CCC(C)C [Compound 114] has pIC50 of 7.70

====

pIC50 listing for selected compounds.
# tested_system: HDAC1 enzyme (recombinant GST-HDAC1) (Homo sapiens (Human))
# experimental_details: In vitro HDAC assay for determination of IC50 values (BIOMOL fluorescent-based HDAC activity assay)
# reported_conditions: Flur de lys substrate, 2 h room temperature, read-out: IC50 (HDAC 1)
The meaning of pIC50 here: minus log10 of the concentration in molar units.

Illustrative cases are given below, each with its answer.
compound: CCCCc1nc2cc(/C=C/C(=O)NO)ccn2c1CN(C)CCCC
test_result: 7.15
//
compound: CCCCc1nc2cc(/C=C/C(=O)NO)ccn2c1CN(CC)CC(C)(C)C
test_result: 6.80

Per the record, CCN(CCCSC)Cc1c(C(C)(C)C)nc2cc(/C=C/C(=O)NO)ccn12 has pIC50 of 7.05

Per the record, CC(C)Cc1nc2cc(/C=C/C(=O)NO)ccn2c1CNC(C)(C)C has pIC50 of 7.30

Per the record, CCCN(Cc1c(C(C)(C)C)nc2cc(/C=C/C(=O)NO)ccn12)C(C)C has pIC50 of 6.52

Per the record, CC(C)(C)NCc1c(-c2ccccc2)nc2cc(/C=C/C(=O)NO)ccn12 has pIC50 of 7.35

Per the record, C#CCNC(=O)CCNc1c(CCCCCC)nc2cc(/C=C/C(=O)NO)ccn12 has pIC50 of 6.85

Per the record, CCCCCCc1nc2cc(/C=C/C(=O)NO)ccn2c1NCCC(=O)NCCCC has pIC50 of 6.89

====

# tested_system: HDAC1 enzyme (recombinant GST-HDAC1) (Homo sapiens (Human), UniProt Q13547)
# experimental_details: In vitro HDAC assay for determination of IC50 values (BIOMOL fluorescent-based HDAC activity assay)
# Format: biochemical
# reported_conditions: Flur de lys substrate, 2 h room temperature, read-out: IC50 (HDAC 1)
log10 IC50 listing for selected compounds.
The figures below represent log10 of IC50, where IC50 is stated in nM.

Illustrative cases are given below, each with its answer.
compound: CCCCCCc1nc2cc(/C=C/C(=O)NO)ccn2c1NCCC(=O)NC(CO)C(C)C (stereo not drawn) [Compound 27]
value_type: log10 IC50
test_result: 2.26

compound: CCCN(Cc1c(C)nc2cc(C=CC(=O)NO)ccn12)CC(C)(C)C [Compound 110]
value_type: log10 IC50
test_result: 2.11

compound: CCCCCc1nc2cc(/C=C/C(=O)NO)ccn2c1CNC(C)(C)C [Compound 128]
value_type: log10 IC50
test_result: 1.30

Per the record, CCCCCCc1nc2cc(/C=C/C(=O)NO)ccn2c1NCCC(=O)N(C)C [Compound 30] has log10 IC50 of 2.94

Per the record, CCCc1nc2cc(/C=C/C(=O)NO)ccn2c1CN(CC)CCC(C)C [Compound 126] has log10 IC50 of 1.48

Per the record, CCC(CC)CN(CC)Cc1c(C(C)(C)C)nc2cc(/C=C/C(=O)NO)ccn12 [Compound 93] has log10 IC50 of 2.28
